System: MCF-7
Test Description: Cell viability assay (MTT), 72 h
Protocol Conditions: Homo sapiens, MCF7, 72 h, read-out: Buparlisib cell viability IC50, MCF-7 (breast), PIK3CA E545K
Assay Metric: pIC50
Scale: pIC50 equals -log10([C]), with [C] in mol/L.

Tested system MCF-7; pIC50 recorded for "Nc1cc(C(F)(F)F)c(-c2cc(N3CCOCC3)nc(N3CCOCC3)n2)cn1" was 6.76

###

System: HOS
Test Description: Cell viability assay (MTT), 72 h
Type: cell-based
Protocol Conditions: Homo sapiens, HOS (OS), read-out: GDC-0941 cell viability IC50
Assay Metric: pIC50
Scale: pIC50 equals -log10([C]), with [C] in mol/L.

The reported pIC50 of the compound CS(=O)(=O)N1CCN(Cc2cc3nc(-c4cccc5[nH]ncc45)nc(N4CCOCC4)c3s2)CC1 [GDC-0941, pictilisib] was 6.79

###

Test system: RD
Test Description: Cell viability assay (MTT), 72 h
Assay type: cell-based
Protocol Conditions: Homo sapiens, RD (RMS), PIK3CA WT, read-out: Buparlisib cell viability IC50
Assay Metric: IC50 (nM)
Give the value, in units of nM, as a plain number.

The reported IC50 of the compound "Nc1cc(C(F)(F)F)c(-c2cc(N3CCOCC3)nc(N3CCOCC3)n2)cn1" was 1070

###

Test system: TC-174
Test Description: Cell viability assay (MTT), 72 h
Assay type: cell-based
Protocol Conditions: TC-174 (ES), PIK3CA WT, read-out: Buparlisib cell viability IC50
Assay Metric: pIC50
Scale: pIC50 equals -log10([C]), with [C] in mol/L.

The reported pIC50 of the molecule "Nc1cc(C(F)(F)F)c(-c2cc(N3CCOCC3)nc(N3CCOCC3)n2)cn1" was 5.98

###

Test system: TC-248
Test Description: Cell viability assay (MTT), 72 h
Format: cell-based
Protocol Conditions: TC-248 (ES), PIK3CA WT, read-out: Buparlisib cell viability IC50
Assay Metric: pIC50
Scale: pIC50 equals -log10([C]), with [C] in mol/L.

The reported pIC50 of the compound Nc1cc(C(F)(F)F)c(-c2cc(N3CCOCC3)nc(N3CCOCC3)n2)cn1 [Buparlisib] was 6.09

###

Tested on: phospho-Akt (S473)
Test Description: Immunoblot (quantitative) of Akt phosphorylation
Format: cell-based
Protocol Conditions: Homo sapiens, A204, 1 h, A204 (RMS); phospho-Akt S473 normalized to total Akt; 1 h treatment; read-out: Buparlisib Akt phosphorylation IC50
Procedure: Cells were incubated for approximately one hour on ice in lysis buffer (50 mM Tris pH 7.6, 0.5% NP-40, 10% glycerol, 30 mM NaCl, 1 mM EDTA) supplemented with Complete Mini EDTA-free protease inhibitor cocktail (Roche), 1 mM Na3VO4, and 1 mM NaF. […] Signals were quantified by measuring the integrated intensity values of each band using Odyssey software (LI-COR Biosciences). We next evaluated the ability of buparlisib to inhibit cellular signaling downstream of PI3K. […]
Assay Metric: IC50 (nM)
Give the value, in units of nM, as a plain number.

The reported IC50 of the molecule Nc1cc(C(F)(F)F)c(-c2cc(N3CCOCC3)nc(N3CCOCC3)n2)cn1 [Buparlisib] was 63.7

###

Test system: phospho-Akt (S473)
Test Description: Immunoblot (quantitative) of Akt phosphorylation
Assay type: cell-based
Protocol Conditions: 1 h, SJCRH30 (RMS); phospho-Akt S473 normalized to total Akt; 1 h treatment; read-out: Buparlisib Akt phosphorylation IC50
Assay Metric: IC50
Write the numeric value and follow it with the unit.

The reported IC50 of the compound Nc1cc(C(F)(F)F)c(-c2cc(N3CCOCC3)nc(N3CCOCC3)n2)cn1 [Buparlisib] was 200 nM

###

Test system: HOS
Test Description: Cell viability assay (MTT), 72 h
Format: cell-based
Protocol Conditions: Homo sapiens, HOS (OS), PIK3CA WT, read-out: Buparlisib cell viability IC50
Assay Metric: IC50 (nM)
Give the value, in units of nM, as a plain number.

The reported IC50 of the compound Nc1cc(C(F)(F)F)c(-c2cc(N3CCOCC3)nc(N3CCOCC3)n2)cn1 [Buparlisib] was 1840

###

System: pediatric sarcoma cell lines
Test Description: Cell viability assay (MTT), panel of sarcoma cell lines
Assay type: cell-based
Protocol Conditions: median over sarcoma cell lines; 72 h; read-out: median IC50 value, cellular proliferation
Assay Metric: pIC50
Scale: pIC50 equals -log10([C]), with [C] in mol/L.

The reported pIC50 of the molecule "Nc1cc(C(F)(F)F)c(-c2cc(N3CCOCC3)nc(N3CCOCC3)n2)cn1" was 5.96

meta.source: paper PMC4581723
